- ASSAY_INFO: qHTS for Inhibitors of the vitamin D receptor (VDR): Hit Validation using a Texas Red Assay (AID 602201)
- STATED_CONDITIONS: VDR coregulator binding, Texas Red fluorescence polarization, agonist-bound VDR ligand-binding domain; series mostly up to 57.1 µM
Records with an inconclusive call do not appear. The source made the active and inactive calls. The call rests on the fitted dose curve; in most records, active means well fitted curve in the direction sought with a large enough effect; inconclusive means small, poorly fitted or top-dose-only effect, or another doubt; inactive means no such curve, though single readings can be large or run the other way.
Outcomes you can answer with include only these: t = active, f = inactive

Cc1[nH]n(-c2ncc(-c3ccccc3)s2)c(=O)c1C(c1ccc(Br)cc1)C(C#N)C#N (stereo unspecified) : f
CCOC(=O)COc1ccc(Br)cc1/C=C/c1[nH]c(=O)[nH]c(=O)c1[N+](=O)[O-] : f
O=[N+]([O-])c1c(Nc2ccccn2)cc(Cl)c2nonc12 : f
COc1cc([N+](=O)[O-])ccc1-c1ccc(/C=C2\C(=O)ON=C2c2ccccc2)o1 : t
O=C(NC1(O)C(=O)c2ccccc2C1=O)c1c(Cl)cccc1Cl : t

Q: How did this test come out for "O=S(=O)(Nc1cc2nc3ccccc3nc2n1Cc1ccccc1)c1ccc(Cl)cc1" ?
A: f

Q: How did this test come out for "O=C1C(Cl)=C(NS(=O)(=O)c2ccc([N+](=O)[O-])cc2)C(=O)c2ccccc21" ?
A: f

Q: How did this test come out for "COc1cc(/C=C2/C(=O)c3cccc([N+](=O)[O-])c3C2=O)c(Br)cc1O" ?
A: f

Q: How did this test come out for "O=C(O)c1ccc2c(c1)C(=O)N(c1ccc(/C=C/C(=O)c3ccccc3)cc1)C2=O" ?
A: f
